Biological target: UniProt P19099
Sequence (P19099 whole entry): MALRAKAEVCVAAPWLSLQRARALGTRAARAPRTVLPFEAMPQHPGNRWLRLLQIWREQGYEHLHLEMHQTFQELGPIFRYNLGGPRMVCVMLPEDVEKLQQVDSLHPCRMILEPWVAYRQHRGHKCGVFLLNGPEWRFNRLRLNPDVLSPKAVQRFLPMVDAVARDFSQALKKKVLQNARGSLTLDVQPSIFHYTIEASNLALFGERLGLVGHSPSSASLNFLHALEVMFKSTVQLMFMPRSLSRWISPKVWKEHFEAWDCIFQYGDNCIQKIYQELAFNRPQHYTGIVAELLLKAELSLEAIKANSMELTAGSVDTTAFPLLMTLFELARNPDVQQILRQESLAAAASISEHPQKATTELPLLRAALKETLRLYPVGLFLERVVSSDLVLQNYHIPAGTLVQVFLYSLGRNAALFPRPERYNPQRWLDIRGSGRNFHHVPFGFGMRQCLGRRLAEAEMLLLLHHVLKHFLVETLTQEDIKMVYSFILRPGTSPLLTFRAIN
Test: Inhibition of human CYP11B2 expressed in hamster V79MZ cells using [1,2-3H]11-deoxycorticosterone as substrate preincubated for 60 mins prior to substrate addition measured after 50 mins by HPLC analysis
Observed property: IC50 (nM)
Numbers only here, please. The scale is nM.

Recorded IC50, per entry:
>>> value_reported("c1csc(-c2ncccc2Cn2ccnc2)c1")
251
>>> value_reported("Brc1ncccc1Cn1ccnc1")
911
>>> value_reported("c1ccc2c(-c3ccc(Cn4ccnc4)cn3)cccc2c1")
2080
>>> value_reported("Oc1ccc(-c2ccc(Cn3ccnc3)cn2)cc1F")
237
>>> value_reported("Nc1cccc(-c2ccc(Cn3ccnc3)cn2)c1")
3410

Q: Specify IC50 for c1ccc2c(-c3ccc(Cn4ccnc4)cn3)csc2c1 and stop.
Result: 1160

Q: Give the value of IC50 reported for the following: Nc1ccc(-c2ccc(Cn3ccnc3)cn2)cc1
Result: 528

Q: # return recorded IC50 for input Nc1ccccc1-c1ccc(Cn2ccnc2)cn1
Result: 2110

The reported measurements were obtained from BindingDB's records for doi:10.1021/ml4000595.
